From: ChEMBL document CHEMBL3885861

Species: Rattus norvegicus
protocol notes: Open TG-GATES - Regimen: Daily Repeat
Assay type: toxicity, organism-based, Sprague-Dawley
Set-up: regimen Daily Repeat, gender Male, age 6 weeks
condition set: in vivo, po, 0 mg/kg, 72 h, tissue Blood, route gavage, dose level Control, time 3 day
quantity name: Ht (%)
The response must be a number in % with no trailing unit.

// Ht lookup, key: CC1=C(/C=C/C(C)=C/C=C/C(C)=C/CO)C(C)(C)CCC1
39.5

// next record CN1C(=O)CN=C(c2ccccc2)c2cc(Cl)ccc21
40.6

// query: CN(C)CCN(Cc1cccs1)c1ccccn1
38.8

Consider next the molecule O=C(CCCN1CCC(O)(c2ccc(Cl)cc2)CC1)c1ccc(F)cc1 in the same way.
41.1
